Recorded Kd for the following binders
biological target: DN-IV quality control recombinant protein (produced by the company) (dengue virus); assay: BLI, antibody on AMC sensor
observable: Kd

binder: Mutation 1-34 (antibody, V domains shown) VH: EVQLQQPGPELVKPGASVKMSCKASGYTFTSSVIHWVRQKPGQGLEWIGYMNPYNDGIKYNEKFIGKAILTSDKSSSTAYMQLSSLTSEDSAVYYCTREGLFYVFDYWGQGTSVTVSS VL: QIVLTQSPAIMSASPGEKVTMTCSATSSLSYMHWYQQKSGTSPKRWIYDTSKLASGVPVRFSGSGSGTSYSLTISSMEAEDAATYFCQYWRSDLPTFGAGTKLELKR
result: 2.89 nM
//
binder: Mutation 1-3 (antibody, V domains shown) VH: EVQLQQPGPELVKPGASVKMSCKASGYTFTSTVIHWVRQKPGQGLEWIGYMNPYNDGIKYNEKFIGKAILTSDKSSSTAYMQLSSLTSEDSAVYYCTREGLFYVFDYWGQGTSVTVSS VL: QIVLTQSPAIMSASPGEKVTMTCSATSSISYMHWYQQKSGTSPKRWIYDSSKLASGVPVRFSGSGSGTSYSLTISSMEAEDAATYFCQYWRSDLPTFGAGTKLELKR
result: 2.9 nM
